Where do the numbers come from? From ChEMBL document CHEMBL1155126.

# Test system: Cryptococcus neoformans
# PROTOCOL NOTES: Antimicrobial activity against Cryptococcus neoformans ATCC 90113
# Format: functional, organism-based
Please respond with reported pIC50 for every item in the list.
Give bare numbers, as −log10 of the molar value.

Would you please look over these solved cases?
COMPOUND	pIC50
O[C@]12C=C(c3nccc4c3[nH]c3ccccc34)[C@@H]3CCN(CCCC/C=C\CC1)C[C@@]31C[C@@H]3/C=C\CCCCN3[C@H]12	5.57
CO[C@]12C=C(c3c4[nH]c5ccccc5c4cc[n+]3C)C3CCN(CCCC/C=C\CC1)C[C@@]31C[C@@H]3/C=C\CCCCN3[C@H]12.O=S(=O)([O-])C(F)(F)F (stereo partly drawn)	4.28

Then there is this compound:
-- ask Given C[n+]1ccc2c([nH]c3ccccc32)c1C1=C[C@@]2(O)CC/C=C\CCCCN3CCC1[C@]1(C[C@@H]4/C=C\CCCCN4[C@H]12)C3.O=S(=O)([O-])C(F)(F)F (stereo partly drawn) , respond with its pIC50.
-- reply 4.15

====

Please respond with reported IC50 for every item in the list.
# Test system: Mycobacterium intracellulare
# PROTOCOL NOTES: Antimicrobial activity against Mycobacterium intracellular ATCC 23068
# Format: functional, organism-based
A complete answer gives the number and then names the unit.

State recorded IC50 for all listed molecules.
1. O[C@]12C=C(c3nccc4c3[nH]c3ccccc34)[C@@H]3CCN(CCCC/C=C\CC1)C[C@@]31C[C@@H]3/C=C\CCCCN3[C@H]12
2. O=C(O)c1cn(C2CC2)c2cc(N3CCNCC3)c(F)cc2c1=O
3. C[n+]1ccc2c([nH]c3ccccc32)c1C1=C[C@@]2(O)CC/C=C\CCCCN3CCC1[C@]1(C[C@@H]4/C=C\CCCCN4[C@H]12)C3.O=S(=O)([O-])C(F)(F)F (stereo partly drawn)

-- reply
180 nM
1100 nM
17800 nM

====

# Test system: Aspergillus fumigatus
# PROTOCOL NOTES: Antimicrobial activity against Aspergillus fumigatus ATCC 90906
# Type: functional, organism-based
Activity calls are given as the source filed them. The rule behind the calls is not given here.

COMPOUND	Activity
O[C@]12C=C(c3nccc4c3[nH]c3ccccc34)[C@@H]3CCN(CCCC/C=C\CC1)C[C@@]31C[C@@H]3/C=C\CCCCN3[C@H]12	inactive
C[n+]1ccc2c([nH]c3ccccc32)c1C1=C[C@@]2(O)CC/C=C\CCCCN3CCC1[C@]1(C[C@@H]4/C=C\CCCCN4[C@H]12)C3.O=S(=O)([O-])C(F)(F)F (some centres undefined)	inactive
Cn1c2ccccc2c2ccnc(C3=C[C@@]4(O)CC/C=C\CCCCN5CCC3[C@]3(C[C@@H]6/C=C\CCCCN6[C@H]34)C5)c21 (some centres undefined)	inactive
CO[C@]12C=C(c3c4[nH]c5ccccc5c4cc[n+]3C)C3CCN(CCCC/C=C\CC1)C[C@@]31C[C@@H]3/C=C\CCCCN3[C@H]12.O=S(=O)([O-])C(F)(F)F (some centres undefined)	inactive

====

# PROTOCOL NOTES: Selectivity index, ratio of IC50 for african green monkey (Cercopithecus aethiops) Vero cells to IC50 for chloroquine-resistant Plasmodium falciparum W2
# Format: toxicity, cell-based
# CONDITION INFO: read-out: Ratio IC50
METRIC NAME: selectivity ratio

Would you please look over these solved cases?
COMPOUND	selectivity ratio
C[C@@H]1CC[C@H]2[C@@H](C)C(=O)O[C@@H]3O[C@@]4(C)CC[C@@H]1[C@]32OO4	> 3700
C[n+]1ccc2c([nH]c3ccccc32)c1C1=C[C@@]2(O)CC/C=C\CCCCN3CCC1[C@]1(C[C@@H]4/C=C\CCCCN4[C@H]12)C3.O=S(=O)([O-])C(F)(F)F (stereo partly drawn)	> 17.5

Then there is this compound:
-- ask Given O[C@]12C=C(c3nccc4c3[nH]c3ccccc34)[C@@H]3CCN(CCCC/C=C\CC1)C[C@@]31C[C@@H]3/C=C\CCCCN3[C@H]12 , respond with its selectivity ratio.
-- reply 25.2
